Just for reference, paper PMC9810080 is where these values come from.

Reported Ka values for a set of binders
# Target or system: CaM C-lobe fragment (residues 80–149) (UniProt P0DP23 80-149)
# Protocol: ITC
Dear colleague, please return just the value in M⁻¹, with no unit written.

Binder | Reported result
NDRLQELVKLFKERTEKVKEKLIDP (peptide, UniProt Q14028 565-589, looked up) [CaM1 peptide, CNGB1 residues 565–589] | 34000
GGKGAKGGKLAHLRAREKELAALEAAAK (peptide, UniProt Q14028 1120-1147, looked up) [CaM2^L1136E peptide (CNGB1 residues 1120–1147, L1136E)] | 12000
GGKGAKGGKLAHERARLKELAALEAAAK (peptide, UniProt Q14028 1120-1147, looked up) [CaM2^L1132E peptide (CNGB1 residues 1120–1147, L1132E)] | 18000

Now look at this one.
Which measured Ka value corresponds to GGKGAKGGKLAHLRARLKELAALEAAAK (peptide, UniProt Q14028 1120-1147, looked up) [CaM2 peptide, CNGB1 residues 1120–1147] ?
9.8e+06
